# experimental.target: T1, monkey C5-mmh (monkey, UniProt P01031 19-1676 (human entry), limits assumed)
# T1 construct: Recombinant monkey C5 with a C-terminal myc-myc-hexahistidine tag
# T1 chain: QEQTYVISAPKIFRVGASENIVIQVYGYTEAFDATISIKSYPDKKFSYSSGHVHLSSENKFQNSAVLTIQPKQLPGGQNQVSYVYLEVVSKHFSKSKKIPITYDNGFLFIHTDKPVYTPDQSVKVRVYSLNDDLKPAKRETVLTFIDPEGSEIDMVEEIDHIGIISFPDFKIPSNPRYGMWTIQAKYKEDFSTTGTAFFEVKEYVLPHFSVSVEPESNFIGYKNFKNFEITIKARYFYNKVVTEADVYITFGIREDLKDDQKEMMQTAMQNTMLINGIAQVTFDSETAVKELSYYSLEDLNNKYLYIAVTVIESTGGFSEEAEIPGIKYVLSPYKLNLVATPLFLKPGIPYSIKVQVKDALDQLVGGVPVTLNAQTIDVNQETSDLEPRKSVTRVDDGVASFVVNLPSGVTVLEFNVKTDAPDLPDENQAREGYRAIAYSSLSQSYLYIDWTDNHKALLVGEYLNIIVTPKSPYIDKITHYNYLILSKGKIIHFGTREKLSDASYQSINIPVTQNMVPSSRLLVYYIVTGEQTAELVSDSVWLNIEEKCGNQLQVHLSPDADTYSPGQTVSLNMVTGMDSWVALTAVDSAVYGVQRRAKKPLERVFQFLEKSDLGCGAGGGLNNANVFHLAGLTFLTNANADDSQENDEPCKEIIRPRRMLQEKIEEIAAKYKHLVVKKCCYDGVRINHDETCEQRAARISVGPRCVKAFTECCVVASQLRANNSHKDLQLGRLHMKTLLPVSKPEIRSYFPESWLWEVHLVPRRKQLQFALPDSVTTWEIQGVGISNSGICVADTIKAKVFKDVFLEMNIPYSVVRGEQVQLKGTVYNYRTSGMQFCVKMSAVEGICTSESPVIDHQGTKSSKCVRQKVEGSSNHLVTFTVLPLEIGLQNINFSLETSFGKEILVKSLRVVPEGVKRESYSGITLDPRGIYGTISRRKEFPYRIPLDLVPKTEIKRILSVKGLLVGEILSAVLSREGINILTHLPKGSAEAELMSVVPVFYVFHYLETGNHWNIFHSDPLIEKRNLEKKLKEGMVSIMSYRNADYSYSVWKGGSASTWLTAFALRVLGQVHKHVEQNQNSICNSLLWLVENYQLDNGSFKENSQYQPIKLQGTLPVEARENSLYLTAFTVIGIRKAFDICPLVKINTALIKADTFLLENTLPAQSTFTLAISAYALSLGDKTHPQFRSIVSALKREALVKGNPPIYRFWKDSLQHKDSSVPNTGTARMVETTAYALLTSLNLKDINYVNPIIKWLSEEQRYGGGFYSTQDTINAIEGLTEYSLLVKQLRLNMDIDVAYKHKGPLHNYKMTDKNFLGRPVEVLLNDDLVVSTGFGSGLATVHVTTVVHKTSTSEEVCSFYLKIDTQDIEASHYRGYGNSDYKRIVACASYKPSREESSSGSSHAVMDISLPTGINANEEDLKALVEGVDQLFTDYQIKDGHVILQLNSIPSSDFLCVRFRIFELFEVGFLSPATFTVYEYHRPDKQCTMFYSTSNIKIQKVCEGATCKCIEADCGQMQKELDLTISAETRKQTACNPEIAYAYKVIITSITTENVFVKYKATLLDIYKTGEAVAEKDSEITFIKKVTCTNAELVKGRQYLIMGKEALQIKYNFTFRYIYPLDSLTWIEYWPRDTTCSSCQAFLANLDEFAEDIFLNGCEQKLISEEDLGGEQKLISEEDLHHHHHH
# method.description: SPR, mAb captured via anti-hFc, 37C
For each entry below, report its kon value.
Answers are plain numbers, in M⁻¹ s⁻¹.

// for each binder below, give its kon
1. H4H12166P9 (antibody, human IgG4, V domains shown, Histidine-mutated CDR variant of H4H12166P; human IgG4 Fc with S108P) VH: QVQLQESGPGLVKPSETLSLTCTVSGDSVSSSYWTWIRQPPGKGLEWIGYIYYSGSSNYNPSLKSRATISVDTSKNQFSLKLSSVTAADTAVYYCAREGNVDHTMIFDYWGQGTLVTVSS VL: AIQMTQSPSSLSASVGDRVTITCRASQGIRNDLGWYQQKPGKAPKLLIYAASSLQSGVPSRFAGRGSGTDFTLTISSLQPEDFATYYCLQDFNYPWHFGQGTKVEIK
2. H4H12166P8 (antibody, human IgG4, V domains shown, Histidine-mutated CDR variant of H4H12166P; human IgG4 Fc with S108P) VH: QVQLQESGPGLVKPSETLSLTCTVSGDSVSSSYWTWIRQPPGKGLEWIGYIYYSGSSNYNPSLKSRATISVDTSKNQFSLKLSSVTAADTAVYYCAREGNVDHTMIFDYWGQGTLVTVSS VL: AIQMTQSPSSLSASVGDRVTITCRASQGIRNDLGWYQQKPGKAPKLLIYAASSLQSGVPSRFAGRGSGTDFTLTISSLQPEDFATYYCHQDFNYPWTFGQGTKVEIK

181000
203000

# lookup: kon of H4H12166P2 (antibody, human IgG4, V domains shown, Histidine-mutated CDR variant of H4H12166P; human IgG4 Fc with S108P) VH: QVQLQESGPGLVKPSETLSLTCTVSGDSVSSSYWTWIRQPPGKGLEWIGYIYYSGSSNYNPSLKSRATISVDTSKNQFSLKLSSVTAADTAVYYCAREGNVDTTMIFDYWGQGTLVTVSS VL: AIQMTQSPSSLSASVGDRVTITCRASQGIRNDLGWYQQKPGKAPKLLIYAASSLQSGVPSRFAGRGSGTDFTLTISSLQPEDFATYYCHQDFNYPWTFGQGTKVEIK
393000
